TEST PROTOCOL: clinical
PARTICULARS: female, human, in vivo, 100 mg
OBSERVED PROPERTY: concentration at 32 h (nM)

1) CN1CC[C@]23c4c5ccc(O)c4O[C@H]2[C@@H](O)C=C[C@H]3[C@H]1C5    9.8

###

TEST PROTOCOL: clinical
PARTICULARS: human, in vivo, 100 mg
OBSERVED PROPERTY: concentration at 4 h (nM)

1. CN1CC[C@]23c4c5ccc(O)c4O[C@H]2[C@@H](O)C=C[C@H]3[C@H]1C5 [Morphine acetate]    162

###

TEST PROTOCOL: clinical
PARTICULARS: human, in vivo, 100 mg
OBSERVED PROPERTY: concentration at 3 h (nM)

1. CN1CC[C@]23c4c5ccc(O)c4O[C@H]2[C@@H](O)C=C[C@H]3[C@H]1C5 [Morphine acetate]    115

###

TEST PROTOCOL: clinical
PARTICULARS: human, in vivo, 100 mg
OBSERVED PROPERTY: concentration at 2 h (nM)

1) CN1CC[C@]23c4c5ccc(O)c4O[C@H]2[C@@H](O)C=C[C@H]3[C@H]1C5 [Morphine acetate]    112

###

TEST PROTOCOL: clinical
PARTICULARS: human, in vivo, 100 mg
OBSERVED PROPERTY: concentration at 0 h (nM)

1) CN1CC[C@]23c4c5ccc(O)c4O[C@H]2[C@@H](O)C=C[C@H]3[C@H]1C5 [Morphine acetate]    0

###

TEST PROTOCOL: clinical
PARTICULARS: human, in vivo, 100 mg
OBSERVED PROPERTY: concentration at 3.5 h (nM)

1) CN1CC[C@]23c4c5ccc(O)c4O[C@H]2[C@@H](O)C=C[C@H]3[C@H]1C5 [Morphine acetate]    154
